# System: MDA-N
# EXPERIMENT DESCRIPTION: NCI tumour cell line growth inhibition, 48 h
Exercise: state measured TGI for each of the molecules provided.

{"MOLECULE": "Cc1ccc(-c2cn3c(nc4ccccc43)c(C)n2)cc1", "TGI": "> 100 µM"}
{"MOLECULE": "CCOc1c(OC)cc(CNNc2nccs2)cc1OC", "TGI": "> 100 µM"}

Consider the record given below.
Param item = O=C1C2=C(Nc3cc([N+](=O)[O-])ccc3N2)OC1c1c[nH]c2ccc(COc3ccccc3)cc12 (stereo not drawn) ; retrieve measured TGI.
> 100 µM

----------
# Tested on: SK-MEL-2 melanoma
# EXPERIMENT DESCRIPTION: NCI tumour cell line growth inhibition, 48 h
Exercise: state measured TGI for each of the molecules provided.

The examples below pair each entry with its known result.
{"MOLECULE": "Cc1ccc(-c2cn3c(nc4ccccc43)c(C)n2)cc1", "TEST TARGET": "SK-MEL-2 melanoma", "TGI": "> 63.8 µM"}
{"MOLECULE": "COC(=O)C1(C(=O)OC)CC2=C(S(=O)(=O)c3ccccc3)C[C@@H](C#N)[C@H]2C1", "TEST TARGET": "SK-MEL-2 melanoma", "TGI": "> 100 µM"}
{"MOLECULE": "CC(=O)NC1C(=O)CC(c2ccccc2)N(C)C1c1ccccc1 (stereo not given)", "TEST TARGET": "SK-MEL-2 melanoma", "TGI": "> 100 µM"}
{"MOLECULE": "Cc1nn(C(=O)CC(=O)Nc2ccccc2Cl)c(C)c1N=Nc1ccccc1Cl", "TEST TARGET": "SK-MEL-2 melanoma", "TGI": "> 100 µM"}

Consider the record given below.
Param item = `CC1=C2CC3=C(C)C(=O)O[C@H]3C[C@@H](C)[C@@H]2CC1` ; retrieve measured TGI.
> 100 µM
